These data points were gathered from PubChem BioAssay (NCI).

System: UACC-257 melanoma
TEST NAME: NCI-60 one-dose screen, 48 h (100 = growth as untreated, 0 = no growth, -100 = all killed)
CONDITION INFO: 10 µM
This is part of a sample that, as a whole, favours compounds with a hit. Of some 83,000 tested, about 20% had one in any assay.
Items are presented alongside their recorded growth.
Kindly provide the numeric value in % only, without the unit symbol.

Would you please look over these solved cases?
COc1ccc([C@H]2C(C(=O)c3ccc(Cl)cc3)C3(N[C@@H]2c2ccccc2)C(=O)Nc2ccc(Br)cc23)cc1 (stereo not given in full)    17
O=C1Nc2ccc(Cl)cc2/C1=C/c1ccc(OCc2ccccn2)cc1    118
CN1CCN(c2ccc(C(=O)/C=C/c3cc(C(F)(F)F)ccc3Cl)cc2)CC1    -79.7
O=C(NO)c1ccc(Cn2ccc3c(NCc4ccccc4)ncnc32)cc1    -20.8
Cc1ccc2nc(-c3ccc(-c4nnc(SCC(=O)Nc5ccc(Br)cc5)o4)cc3)[nH]c2c1    96.5
Cc1ccc(C(=O)Nc2ccc(-n3c(C)nc4c(cnn4-c4ccccc4)c3=O)cc2)cc1    42
COC(=O)CC1CC1C1Cc2c(nc(N(C)S(C)(=O)=O)nc2C(C)C)-c2ccc(F)cc21 (stereo not given)    83.8
COc1ccc2[nH]cc(/C=N/Nc3ccc(Br)cn3)c2c1    52.6

Identify the reported growth for the following entry. O=C(c1ccc([N+](=O)[O-])c([N+](=O)[O-])c1O)n1[nH]c(=O)c2ccccc2c1=O 79.9

Identify the reported growth for the following entry. COc1ccc(-c2nc(-c3ccccc3)c(-c3ccccc3)n2-c2ccc(S(=O)(=O)Nc3ncccn3)cc2)cc1OC 113

Identify the reported growth for the following entry. Cc1noc2c(Cc3ccc([N+](=O)[O-])cc3)nn(CC(=O)N/N=C/c3ccc(Br)cc3)c(=O)c12 106

Identify the reported growth for the following entry. O=c1nc(-c2ccccc2)cc(-c2cc3ccccc3nc2Cl)[nH]1 91.2

Identify the reported growth for the following entry. Brc1ccc(N/N=C/c2c[nH]c3ccccc23)nc1 70.8

Identify the reported growth for the following entry. CC(=C(c1ccc(OCCCN(C)C)cc1)c1ccc(OCCCN(C)C)cc1)c1ccccc1 -88

Identify the reported growth for the following entry. OCCNc1oc(-c2ccccc2)nc1[P+](c1ccccc1)(c1ccccc1)c1ccccc1 -9.09

Identify the reported growth for the following entry. Cc1ccc2nc(COc3ccc(C(=O)NNC(=S)NCCc4ccccc4)cc3)[nH]c2c1 103

Identify the reported growth for the following entry. O=C(Cn1nc(-c2ccccc2)ccc1=O)NNC(=S)NC1CCCCC1 111

Identify the reported growth for the following entry. O=c1[nH]c2ccccc2cc1CSc1ccc(Nc2nccc(-c3ccc(Cl)cc3)n2)cc1 54.1

Identify the reported growth for the following entry. Cc1ccc(CNC(=O)Cc2ccc3c(c2)CN(C2CCC(=O)NC2=O)C3=O)cc1 (stereo not given) 70.5

Identify the reported growth for the following entry. O=C(O)CCCCCCCCCCN1C(=O)/C(=C/c2cnc(-c3ccccc3)s2)SC1=S 101
